System: LXRb homodimer (NR concentration 270 nM)
Assay remarks: PBM binding z-score (relative to random genomic background probes); higher = stronger binding; sequences stand for … in GC…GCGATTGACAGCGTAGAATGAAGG
Endpoint name: PBM binding z-score
// no unit string in output, number only

Tell us which PBM binding z-score value is on record for `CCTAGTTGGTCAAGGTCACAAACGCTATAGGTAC`
0.933

* * *

Test system: PPARg:RXRa 30nM:10nM, anti-RXR (NR concentration 30 nM, RXRa partner concentration 10 nM)
Assay remarks: PBM binding z-score (relative to random genomic background probes); higher = stronger binding; sequences stand for … in GC…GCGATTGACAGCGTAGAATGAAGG
Endpoint name: PBM binding z-score
Give the figure by itself; no unit, no explanation.

query_sequence=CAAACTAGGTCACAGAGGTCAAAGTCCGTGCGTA meas_value=6.84
query_sequence=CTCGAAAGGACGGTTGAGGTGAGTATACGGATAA meas_value=0.0534
query_sequence=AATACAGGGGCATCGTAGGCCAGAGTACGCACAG meas_value=0.174
query_sequence=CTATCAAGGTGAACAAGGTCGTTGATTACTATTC meas_value=0.103
query_sequence=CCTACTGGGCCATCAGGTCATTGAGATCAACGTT meas_value=1.41
query_sequence=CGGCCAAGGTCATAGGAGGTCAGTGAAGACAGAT meas_value=2.38

Please find the next sequence below.
Specify measured PBM binding z-score for `CGAACTAGGTCATCCAGGACAGTGCATACATTGA` .
3.97
